# METHOD_DESCRIPTION: chemical genetic growth profiling, strain panel (AID 1159580);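 note: tested at 20 µM; growth read once vehicle control cultures reached saturation at 30 °C; 1 = growth at the plate median or of vehicle wells; lower values mean less growth of the strain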
# CONDITION_PARAMETERS: S. cerevisiae deletion strains, growth OD, locus YBR021W, strain FUR4, active compounds read low
The campaign covered roughly 5,500 compounds. About 2,000 (36%) were called active. About 18% were inconclusive and are not listed. Some of the results follow.
MEASUREMENT_TYPE: normalized growth

COMPOUND	EXPERIMENTAL_VALUE
O=C1OC(c2ccc(O)cc2)(c2ccc(O)cc2)c2ccccc21	1.01
Cc1cccc(C)c1NC1=NCCCS1	0.99
CC(C)[C@@H]1CC[C@@H](C)C[C@H]1O	1.03
COC(=O)C1=CCCN(C)C1	1
C=C1CCC2C(CC2(C)C)C(=C)CC/C1=N\O (stereo not drawn)	0.89
Cc1ccc(Cl)c(Nc2ccccc2C(=O)O)c1Cl	0.954
Cc1cccc(Nc2ccccc2C(=O)O)c1C	0.853
CC(=O)Oc1c(C)cccc1C(=O)O	0.989

* * *

Recorded normalized growth, one value per entry.
# METHOD_DESCRIPTION: chemical genetic growth profiling, strain panel (AID 1159580);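 note: tested at 20 µM; growth read once vehicle control cultures reached saturation at 30 °C; 1 = growth at the plate median or of vehicle wells; lower values mean less growth of the strain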
# CONDITION_PARAMETERS: S. cerevisiae deletion strains, growth OD, locus YAL021C, strain ccr4, active compounds read low
Among all 5,500 compounds or so, about 2,000 (36%) were called active. Another 18% or so got no clear call; they are omitted. Some of the results follow.
MEASUREMENT_TYPE: normalized growth

COMPOUND	EXPERIMENTAL_VALUE
OCc1ccccc1O	1.02 (inactive)
CC[N+](CC)(CC)CCOc1cccc(OCC[N+](CC)(CC)CC)c1OCC[N+](CC)(CC)CC	1.02 (inactive)
CC(C)NCC(O)COc1cccc2ccccc12 (configuration not stated)	0.971 (inactive)
C=CCSCC1Nc2cc(Cl)c(S(N)(=O)=O)cc2S(=O)(=O)N1 (configuration not stated)	0.994 (inactive)
O=C1[C@H](CCC(O)c2ccc(F)cc2)[C@@H](c2ccc(O)cc2)N1c1ccc(F)cc1 (some centres not stated)	0.999 (inactive)
CC(=O)Oc1c(C)cccc1C(=O)O	0.989 (inactive)
CC1(C)O[C@H]2[C@H](O)C[C@](O)(C(N)=O)C[C@H]2O1	0.996 (inactive)

* * *

Recorded normalized growth, one value per entry.
# METHOD_DESCRIPTION: chemical genetic growth profiling, strain panel (AID 1159580);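 note: tested at 20 µM; growth read once vehicle control cultures reached saturation at 30 °C; 1 = growth at the plate median or of vehicle wells; lower values mean less growth of the strain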
# CONDITION_PARAMETERS: S. cerevisiae deletion strains, growth OD, locus YPL241C, strain CIN2, active compounds read low
The campaign covered roughly 5,500 compounds. About 2,000 (36%) were called active. Not shown: some 18% with an inconclusive outcome. The list shows a part of the results.

COMPOUND_STRING	normalized growth
Cc1onc(-c2ccccc2)c1NC(=O)Nc1c(Cl)cccc1Cl	0.941
C[C@@H]1O[C@H](C[N+](C)(C)C)CS1	1.01
C[N+](C)(CCCCCC[N+](C)(C)CCCN1C(=O)c2cccc3cccc(c23)C1=O)CCCN1C(=O)c2cccc3cccc(c23)C1=O	0.99
Cc1cc(-c2ccccc2)nnc1NCCN1CCOCC1	1.01
O=C(c1ccc(-c2ccccc2)cc1)c1cc2cc([N+](=O)[O-])ccc2o1	1.07
N#CC(C#N)=Cc1ccc(-c2cc(C(F)(F)F)ccc2Cl)o1	0.899
COC(=O)C1=C(C)NC(C)=C(C(=O)OC)C1c1ccc(-c2ccsc2C(=O)OC)o1	0.862
N#Cc1c(F)cccc1Oc1ccc(F)cc1	0.978

Source listed as PubChem BioAssay AID1159580.
